- TESTED_ON: T. brucei TryR (trypanothione reductase; TyrR) (Trypanosoma brucei, UniProt P39051)
- Sequence (P39051 whole entry): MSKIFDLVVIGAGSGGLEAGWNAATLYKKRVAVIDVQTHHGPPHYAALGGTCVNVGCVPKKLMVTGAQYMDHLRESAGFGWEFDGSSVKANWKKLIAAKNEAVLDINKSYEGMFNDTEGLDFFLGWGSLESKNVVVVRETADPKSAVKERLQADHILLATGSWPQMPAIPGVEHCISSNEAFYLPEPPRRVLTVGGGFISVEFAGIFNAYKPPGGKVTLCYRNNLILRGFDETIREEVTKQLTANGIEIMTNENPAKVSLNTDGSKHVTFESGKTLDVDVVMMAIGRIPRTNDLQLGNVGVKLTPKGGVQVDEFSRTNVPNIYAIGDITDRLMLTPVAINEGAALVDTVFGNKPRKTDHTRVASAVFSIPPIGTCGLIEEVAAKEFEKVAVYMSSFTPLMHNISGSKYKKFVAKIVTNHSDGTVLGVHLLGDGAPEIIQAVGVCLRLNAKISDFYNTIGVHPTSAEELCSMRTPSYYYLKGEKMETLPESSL
- ASSAY_DETAILS: DTNB-coupled kinetics, global fit
MEASURED_METRIC: pKi
Schema: pKi number; meaning minus log10 of the concentration expressed in molar units.

Complete the entry with pKi for c1ccc2oc(C3(N4CCCCC4)CCCCC3)cc2c1
5.84

* * *

- TESTED_ON: T. brucei TryR (trypanothione reductase; TyrR) (Trypanosoma brucei, UniProt P39051)
- ASSAY_DETAILS: DTNB-coupled TryR assay, absorbance, 384-well
- Format: biochemical
pIC50: −log10 of the molar value.
Would you please tag the item Met when its pIC50 is 5 or above, and Not met when it is below?

Check the entry CC(C)(C)OC(=O)N1CCC(c2cc3ccccc3s2)(N2CCCCC2)CC1 [compound 27] : does pIC50 equal or exceed 5?
Not met

Check the entry CC(C)(c1cc2ccccc2s1)N1CCCCC1 [compound 19] : does pIC50 equal or exceed 5?
Not met

Check the entry CC(=O)N1CCC(c2cc3ccccc3s2)(N2CCCCC2)CC1 [compound 29] : does pIC50 equal or exceed 5?
Met

Check the entry OC(c1ccccc1)(c1ccccc1)C1(N2CCCCC2)CCCCC1 [compound 25] : does pIC50 equal or exceed 5?
Not met

Check the entry c1ccc(CN2CCC(c3cc4ccccc4s3)(N3CCCCC3)CC2)cc1 [compound 34] : does pIC50 equal or exceed 5?
Not met

Check the entry CN(C)CCN1CCC(c2cc3ccccc3s2)(N2CCCCC2)CC1 [compound 35] : does pIC50 equal or exceed 5?
Not met

Check the entry c1ccc2sc(C3(N4CCCCC4)CCNCC3)cc2c1 [compound 28] : does pIC50 equal or exceed 5?
Met

Okay, now this compound:
Check the entry c1ccc2sc(C3(N4CCCCC4)CCCCC3)nc2c1 [compound 9] : does pIC50 equal or exceed 5?
Not met

* * *

- TESTED_ON: T. brucei TryR (trypanothione reductase; TyrR) (Trypanosoma brucei, UniProt P39051)
- ASSAY_DETAILS: DTNB-coupled TryR assay, absorbance, 384-well
- Type: biochemical
- RECORDED_CONDITIONS: read-out: TryR IC50; pH 7.4, 40 mM HEPES, 1 mM EDTA, 6 μM trypanothione, 50 μM DTNB, 150 μM NADPH, room temperature
Measured IC50 by item
Numbers only; they are read as µM.

Example entries and their recorded answers appear below.
Complete the entry with IC50 for c1ccc2sc(C3(N4CCCC4)CCCCC3)cc2c1 [compound 13]
0.91

Complete the entry with IC50 for c1ccc2sc(C3(N4CCCCC4)CCCCC3)cc2c1 [compound 1]
3.3

Turning now to a further record.
Complete the entry with IC50 for CCN(CC)C1(c2cc3ccccc3s2)CCCCC1 [compound 14]
5

* * *

- TESTED_ON: T. brucei TryR (trypanothione reductase; TyrR) (Trypanosoma brucei)
- ASSAY_DETAILS: DTNB-coupled TryR assay, absorbance, 384-well
- Assay type: biochemical
Measured pIC50 by item
Schema: pIC50 number; meaning minus log10 of the concentration expressed in molar units.

Example entries and their recorded answers appear below.
Provide pIC50, system T. brucei TryR (trypanothione reductase; TyrR) (Trypanosoma brucei), entry c1ccc2cc(C3(N4CCCCC4)CCCCC3)ccc2c1
4.55

Provide pIC50, system T. brucei TryR (trypanothione reductase; TyrR) (Trypanosoma brucei), entry CN1CCC(c2cc3ccccc3s2)(N2CCCCC2)CC1
6.03

Provide pIC50, system T. brucei TryR (trypanothione reductase; TyrR) (Trypanosoma brucei), entry O=C(c1ccccc1)N1CCC(c2cc3ccccc3s2)(N2CCCCC2)CC1
4.89

Provide pIC50, system T. brucei TryR (trypanothione reductase; TyrR) (Trypanosoma brucei), entry c1ccc2oc(C3(N4CCCCC4)CCCCC3)cc2c1
5.36

Provide pIC50, system T. brucei TryR (trypanothione reductase; TyrR) (Trypanosoma brucei), entry O=C(Cc1ccccc1)N1CCC(c2cc3ccccc3s2)(N2CCCCC2)CC1
4.92

Provide pIC50, system T. brucei TryR (trypanothione reductase; TyrR) (Trypanosoma brucei), entry CN(C)CC(=O)N1CCC(c2cc3ccccc3s2)(N2CCCCC2)CC1
5.59

Provide pIC50, system T. brucei TryR (trypanothione reductase; TyrR) (Trypanosoma brucei), entry c1ccc2sc(C3(N4CCCCC4)CCCC3)cc2c1
4.96

Next:
Provide pIC50, system T. brucei TryR (trypanothione reductase; TyrR) (Trypanosoma brucei), entry c1ccc2sc(C3(N4CCCCC4)CCN(CCN4CCOCC4)CC3)cc2c1
5.36

The origin of these recorded values is paper PMC2929374.
